tested.target: Angiotensin-converting enzyme (Homo sapiens, UniProt P12821)
Sequence (P12821 whole entry, the tested form may be a part): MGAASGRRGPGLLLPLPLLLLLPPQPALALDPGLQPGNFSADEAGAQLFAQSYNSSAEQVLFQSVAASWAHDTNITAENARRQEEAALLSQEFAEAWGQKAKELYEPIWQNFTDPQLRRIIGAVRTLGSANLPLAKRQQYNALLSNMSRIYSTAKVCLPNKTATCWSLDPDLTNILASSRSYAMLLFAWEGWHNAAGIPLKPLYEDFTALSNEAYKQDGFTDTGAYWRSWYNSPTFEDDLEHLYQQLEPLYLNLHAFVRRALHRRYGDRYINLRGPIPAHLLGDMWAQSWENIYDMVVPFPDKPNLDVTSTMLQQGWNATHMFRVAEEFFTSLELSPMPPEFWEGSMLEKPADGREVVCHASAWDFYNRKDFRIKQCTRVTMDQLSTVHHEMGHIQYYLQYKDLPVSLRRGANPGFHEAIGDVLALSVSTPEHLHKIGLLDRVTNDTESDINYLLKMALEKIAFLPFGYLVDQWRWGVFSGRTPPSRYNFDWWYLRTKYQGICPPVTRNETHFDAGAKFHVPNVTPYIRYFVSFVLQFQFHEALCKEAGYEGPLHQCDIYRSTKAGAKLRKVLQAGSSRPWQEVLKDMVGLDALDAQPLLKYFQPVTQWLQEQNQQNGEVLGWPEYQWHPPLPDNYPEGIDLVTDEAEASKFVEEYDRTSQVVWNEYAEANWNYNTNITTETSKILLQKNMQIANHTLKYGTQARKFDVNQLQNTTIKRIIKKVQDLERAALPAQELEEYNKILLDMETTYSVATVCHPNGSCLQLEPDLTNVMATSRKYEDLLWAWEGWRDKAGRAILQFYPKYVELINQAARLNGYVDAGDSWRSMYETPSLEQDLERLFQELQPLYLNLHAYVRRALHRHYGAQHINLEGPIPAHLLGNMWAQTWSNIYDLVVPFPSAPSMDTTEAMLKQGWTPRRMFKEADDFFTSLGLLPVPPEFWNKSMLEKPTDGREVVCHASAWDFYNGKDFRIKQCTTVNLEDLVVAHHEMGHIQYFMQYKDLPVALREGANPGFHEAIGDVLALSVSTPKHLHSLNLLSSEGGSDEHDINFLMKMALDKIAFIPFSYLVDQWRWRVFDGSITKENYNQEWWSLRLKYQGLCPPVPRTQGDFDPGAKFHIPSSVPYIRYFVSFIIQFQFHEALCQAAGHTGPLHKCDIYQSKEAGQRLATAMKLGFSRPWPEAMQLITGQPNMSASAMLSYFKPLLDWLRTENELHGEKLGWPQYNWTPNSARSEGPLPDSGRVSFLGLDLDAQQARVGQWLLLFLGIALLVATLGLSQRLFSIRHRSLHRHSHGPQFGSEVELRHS
test.readout: IC50

Query block: Please supply the value of reported IC50 for the item "C[C@H](C[C@@H](Cc1ccc(-c2ccccc2)cc1)NC(=O)CCC(=O)O)C(=O)O"
Result block: > 100 µM

---

tested.target: Angiotensin-converting enzyme (Homo sapiens, UniProt P12821)
test.summary: Inhibition of human somatic ACE N-domain soluble form (1 to 629 residues) expressed in CHO cells using Z-FHL as substrate preincubated with enzyme followed by substrate addition by fluorescence based assay
So I've got a bunch of compounds here, and I need their pKi values.
Would you please state pKi, meaning minus log10 of the concentration in mol/L, as a bare number?

Query block: Give the reported value of pKi for this record: "CC(=O)N[C@@H](CC(=O)O)C(=O)NC[C@H](CC1(C(=O)N[C@@H](Cc2ccc(O)cc2)C(=O)O)CCCC1)C(=O)O"
Result block: 4.97

Query block: Kindly indicate its recorded pKi. Item: "CS(=O)(=O)N[C@@H](CCCCN)C(=O)NC[C@H](CC1(C(=O)N[C@@H](Cc2ccc(O)cc2)C(=O)O)CCCC1)C(=O)O"
Result block: 6.76

---

tested.target: Neprilysin (Rattus norvegicus)
Sequence (P07861 whole entry): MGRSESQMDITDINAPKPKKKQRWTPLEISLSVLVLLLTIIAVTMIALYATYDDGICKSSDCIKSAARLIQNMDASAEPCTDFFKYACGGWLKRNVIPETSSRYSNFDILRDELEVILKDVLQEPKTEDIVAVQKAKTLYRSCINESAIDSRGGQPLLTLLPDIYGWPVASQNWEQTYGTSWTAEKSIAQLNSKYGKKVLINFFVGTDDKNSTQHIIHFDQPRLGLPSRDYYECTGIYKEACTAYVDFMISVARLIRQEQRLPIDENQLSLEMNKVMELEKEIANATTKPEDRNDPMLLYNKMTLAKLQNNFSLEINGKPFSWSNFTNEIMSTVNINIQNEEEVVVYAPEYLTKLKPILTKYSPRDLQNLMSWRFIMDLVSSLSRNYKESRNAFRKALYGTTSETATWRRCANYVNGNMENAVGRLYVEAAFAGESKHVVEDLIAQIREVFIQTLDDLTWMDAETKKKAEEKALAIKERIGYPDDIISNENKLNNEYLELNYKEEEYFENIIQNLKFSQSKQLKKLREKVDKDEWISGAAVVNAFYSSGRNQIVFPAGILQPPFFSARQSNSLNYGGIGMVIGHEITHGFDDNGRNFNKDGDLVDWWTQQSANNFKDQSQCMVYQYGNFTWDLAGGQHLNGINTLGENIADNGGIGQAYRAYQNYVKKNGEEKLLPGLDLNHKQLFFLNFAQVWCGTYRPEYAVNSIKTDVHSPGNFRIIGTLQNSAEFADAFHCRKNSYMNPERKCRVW
test.readout: pIC50
Entry type: numeric. Quantity: pIC50, the -log10 of concentration in molar units.

Query block: Assign pIC50 to the following record: CC(C)C[C@H](NP(=O)(O)O[C@@H]1O[C@@H](C)[C@H](O)[C@@H](O)[C@H]1O)C(=O)N[C@@H](Cc1c[nH]c2ccccc12)C(=O)O [PHOSPHORAMIDON]
Result block: 7.47

---

test.summary: Inhibition of rabbit lung ACE using hippuryl-His-Leu as substrate preincubated with enzyme for 15 mins followed by substrate addition
Parameters: species or system Oryctolagus cuniculus
test.readout: IC50 (µM)
Could you give me the number in µM? Just the number is fine.

Query block: State its IC50 for this molecule: "CC(C)C[C@H](NP(=O)(O)O[C@@H]1O[C@@H](C)[C@H](O)[C@@H](O)[C@H]1O)C(=O)N[C@@H](Cc1c[nH]c2ccccc12)C(=O)O"
Result block: 78

---

Answer each item with its documented pKi.
tested.target: Angiotensin-converting enzyme (Homo sapiens, UniProt P12821)
test.summary: Inhibition of human testis ACE C-domain lacking unique O-glycosylated region, transmembrane anchor and cytoplasmic tail expressed in CHO cells using Z-FHL as substrate by fluorescence based assay
Scale explanation: pKi corresponds to minus log10 of a concentration expressed in moles per litre.

Query block: Recall and state the measured pKi for "CS(=O)(=O)N[C@@H](CCCCN)C(=O)NC[C@H](CC1(C(=O)N[C@@H](Cc2ccc(O)cc2)C(=O)O)CCCC1)C(=O)O" .
Result block: 7.86

Query block: Entry "CC(=O)N[C@@H](CC(=O)O)C(=O)NC[C@H](CC1(C(=O)N[C@@H](Cc2ccc(O)cc2)C(=O)O)CCCC1)C(=O)O" needs its pKi filled in; supply it.
Result block: 5.13

All values here come from ChEMBL document CHEMBL4402607.
